Tested on: SD rats
Assay: Capillary expectoration test in rats
Type: in vivo, rat
Details: SD rats, 15 mg/kg via tail vein, capillary tube in trachea, x ± s, n=10
Where a name gives a salt, the structure may show the parent alone.
READOUT LABEL: 90-min length of phlegm expelled (mm)
Only the number, expressed in mm, is required.

Recorded results for 7 compounds are shown here.
# COMPOUND, 90-min length of phlegm expelled / mm
records = [
    ("CC12CC3CC(C1)CC(NCc1cc(Br)cc(Br)c1N)(C3)C2", 36.9),
    ("Nc1c(Br)cc(Br)cc1CNC12CC3CC(C1)CC(C(F)(F)F)(C3)C2", 35.2),
    ("Nc1c(Br)cc(Br)cc1CNC1C2CC3CC1CC(O)(C3)C2 (centres unmarked)", 39.8),
    ("Nc1c(Br)cc(Br)cc1CNC12CC3CC(CC(O)(C3)C1)C2", 39.9),
    ("Nc1c(Br)cc(Br)cc1CN[C@@H]1CCC[C@H]1O", 37.8),
    ("Nc1c(Br)cc(Br)cc1CN[C@@H]1CCC[C@@H]1C(F)(F)F", 31.8),
    ("Nc1c(Br)cc(Br)cc1CNC12CC3CC(CC(C3)C1F)C2 (centres unmarked)", 35.8),
]

Now turn to the next compound.
Incoming: Please report the recorded 90-min length of phlegm expelled for Nc1c(Br)cc(Br)cc1CN[C@H]1CC[C@H](O)CC1 [Ambroxol hydrochloride, reference compound] .
Outgoing: 29.9

----------
Quick reference: MRT of the listed items.
Test: Pharmacokinetics test in rats
Format: in vivo, rat
Details: both sexes, rat, plasma, intravenous, 10 mg/kg as free alkali, n=6
Structures can show the parent of a compound that is named as a salt.
Numeric only. Scale: h

Some entries whose results are on file:
# COMPOUND, MRT [h]
data = [
    ("Nc1c(Br)cc(Br)cc1CNC1C2CC3CC1CC(O)(C3)C2 (stereo not shown)", 2.65),
    ("Nc1c(Br)cc(Br)cc1CN[C@@H]1CCC[C@H]1O", 2.31),
    ("Nc1c(Br)cc(Br)cc1CNC12CC3CC(CC(O)(C3)C1)C2", 2.58),
]

Incoming: Need MRT of Nc1c(Br)cc(Br)cc1CN[C@H]1CC[C@H](O)CC1 [Ambroxol hydrochloride, reference compound] , thanks.
Outgoing: 1.18

Where do the numbers come from? From patent US12006276B2.
